Molecular target: LIGHT without residues 81-84, stably expressed on EL4 cells (EL4-NC-LIGHT)
Assay: cell-based or functional assay
measureName: IC50, inhibition of IL-8 secretion, HT-29 + EL4-NC-LIGHT cells (pM)
Respond with the bare value in pM.

Enquiry: If you can, please state the reported IC50, inhibition of IL-8 secretion, HT-29 + EL4-NC-LIGHT cells value of 3D12_var10 (antibody, V domains shown) VH: QVQLVQSGAEVKKPGASVKVSCKASDYTFTDSEIHWVRQAPGQGLEWIGEIDPETGGTAYNQKFQGRVTLTADKSTSTAYMELSSLRSEDTAVYYCSRETDYFFDYWGQGTLVTVSS VL: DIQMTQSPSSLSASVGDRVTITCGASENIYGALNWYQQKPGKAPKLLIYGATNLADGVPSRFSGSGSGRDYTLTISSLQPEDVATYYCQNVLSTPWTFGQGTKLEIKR .
Return: 440

Enquiry: If you can, please state the reported IC50, inhibition of IL-8 secretion, HT-29 + EL4-NC-LIGHT cells value of 3D12_var3 (antibody, V domains shown) VH: QVQLVQSGAEVKKPGASVKVSCKASDYTFTDSEIHWVRQAPGQGLEWMGEIDPETGGTAYAQKFQGRVTLTADKSTSTAYMELSSLRSEDTAVYYCSRETDYFFDYWGQGTLVTVSS VL: DIQMTQSPSSLSASVGDRVTITCGASENIYGALNWYQRKQGKAPQLLIYGATNLADGVSSRFSGSGSGRDYTLTISSLQPEDVATYYCQNVLSTPWTFGQGTKLEIKR .
Return: 530

Enquiry: If you can, please state the reported IC50, inhibition of IL-8 secretion, HT-29 + EL4-NC-LIGHT cells value of 3B04_var12 (antibody, V domains shown) VH: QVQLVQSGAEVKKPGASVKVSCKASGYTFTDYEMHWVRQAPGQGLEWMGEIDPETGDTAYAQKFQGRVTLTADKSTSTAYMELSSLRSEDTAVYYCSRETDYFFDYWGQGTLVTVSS VL: DIQMTQSPSSLSASVGDRVTITCGASENIYGALNWYQQKPGKAPKLLIYGATNLADGVPSRFSGSGSGRDYTLTISSLQPEDFATYYCQNVLTTPWTFGQGTKLEIKR .
Return: 70
